Field: pEC50. Provide a value for each of the compounds that follow.
# measured.on: C. elegans N-AChR (ACR-16) (Caenorhabditis elegans)
# Sequence (P48180 20-498): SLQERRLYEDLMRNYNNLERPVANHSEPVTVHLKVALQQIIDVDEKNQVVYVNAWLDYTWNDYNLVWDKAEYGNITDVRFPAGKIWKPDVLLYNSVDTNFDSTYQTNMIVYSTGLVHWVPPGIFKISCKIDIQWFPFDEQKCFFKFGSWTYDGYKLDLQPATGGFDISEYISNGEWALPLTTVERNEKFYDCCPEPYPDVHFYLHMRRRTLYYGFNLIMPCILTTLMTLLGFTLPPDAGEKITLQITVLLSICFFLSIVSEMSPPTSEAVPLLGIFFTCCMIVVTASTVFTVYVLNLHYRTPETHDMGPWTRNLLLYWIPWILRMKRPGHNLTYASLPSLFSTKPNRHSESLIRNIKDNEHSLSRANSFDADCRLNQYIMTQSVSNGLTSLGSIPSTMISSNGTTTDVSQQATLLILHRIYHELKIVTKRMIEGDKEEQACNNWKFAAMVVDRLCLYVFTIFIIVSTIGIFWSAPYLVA
# experiment.summary: Two-electrode voltage-clamp, Cel-N-AChR in Xenopus oocytes
Structures can show the parent of a compound that is named as a salt.
Entry type: numeric. Quantity: pEC50, the -log10 of concentration in molar units.

// recorded pEC50 for CC(=O)OCC[N+](C)(C)C [Acetylcholine, Acetylcholine chloride] : 4.66

Given item c1cncc([C@@H]2CCCCN2)c1 [Anabasine, anabasine] , the value recorded as its pEC50 is 4.56

Value of pEC50 reported for the compound CN1CCC[C@H]1c1cccnc1 [Nicotine, (−)-nicotine hydrogen tartrate] is 4.82
